meta.source: ChEMBL document CHEMBL5380813

For each entry below, report its CLint scaled value.
procedureText: Metabolic stability in human liver assessed as intrinsic clearance
Give bare numbers, in mL/min/kg.

compound="C[C@]12CC[C@H]3[C@@H](CCC4=CC(=O)CC[C@@]43C)[C@@H]1CC[C@@H]2O [TESTOSTERONE]" units=mL/min/kg reportedvalue=97.4

Moving on to the next compound.
Q. Item O=C(O)Cc1ccccc1Nc1c(Cl)cccc1Cl [DICLOFENAC] has what recorded CLint scaled?
A. 187

====

testedOn: Cytochrome P450 1A2 (Homo sapiens)
Sequence (P05177 whole entry): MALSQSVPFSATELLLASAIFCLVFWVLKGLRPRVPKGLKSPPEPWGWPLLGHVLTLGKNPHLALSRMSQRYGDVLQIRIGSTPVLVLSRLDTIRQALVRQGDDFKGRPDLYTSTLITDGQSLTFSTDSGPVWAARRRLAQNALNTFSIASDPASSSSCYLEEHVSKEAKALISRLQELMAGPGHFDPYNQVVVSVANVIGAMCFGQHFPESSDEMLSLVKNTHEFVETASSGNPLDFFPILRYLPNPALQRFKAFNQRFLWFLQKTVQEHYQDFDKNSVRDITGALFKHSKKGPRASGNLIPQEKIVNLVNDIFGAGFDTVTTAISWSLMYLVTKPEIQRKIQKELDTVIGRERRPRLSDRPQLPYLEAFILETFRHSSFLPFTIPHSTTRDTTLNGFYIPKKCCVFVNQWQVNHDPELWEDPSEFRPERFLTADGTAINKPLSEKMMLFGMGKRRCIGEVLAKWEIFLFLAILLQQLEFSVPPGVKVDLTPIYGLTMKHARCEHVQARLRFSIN
recordedMetric: IC50

Q. Item O=C(O)c1ccc(CNC(=O)c2c3ccccc3nn2Cc2ccc(C(F)(F)F)cc2)cc1 has what recorded IC50?
A. > 50 µM
